Test: qHTS assay for small molecule agonists of the antioxidant response element (ARE) signaling pathway (AID 743202); for activation: % is set by controls: 0 for no effect and ±100 for the full control effect
Conditions: HepG2 ARE-bla reporter, beta-lactamase FRET, 16 h; series mostly up to 73.3 µM
Records with an inconclusive call do not appear. Calls of active or inactive are those of the source. Calls come from the whole dose curve; as a rule, active = well fitted activation curve with a large enough effect in the signal ratio in the repeat runs (not every such curve was filed as active); inconclusive = weak or mixed curves, or effect the other way; inactive = no such curve, though single readings can be large or run the other way; the % refers to the signal ratio.
Select the matching outcome among active, inactive

>>> assigned_class("Nc1ncnc2c1ncn2Cc1c(F)cccc1Cl")
"inactive"
>>> assigned_class("CC(C)CCOC(=O)CC(C)C")
"inactive"
>>> assigned_class("C#CC(O)C(CC)CCCC (stereo unspecified)")
"inactive"

Ask | Hello, I am checking results. What call was entered for NS(=O)(=O)c1cc2c(cc1C(F)(F)F)NC(Cc1ccccc1)NS2(=O)=O (stereo unspecified) ?
Reply | inactive

Ask | Tell me the recorded outcome of this test for Cc1onc(-c2ccccc2)c1-c1ccc(S(N)(=O)=O)cc1 .
Reply | inactive

----------
Target: Nuclear receptor subfamily 1 group I member 3 (Homo sapiens) (UniProt Q14994)
Sequence (Q14994 whole entry, looked up): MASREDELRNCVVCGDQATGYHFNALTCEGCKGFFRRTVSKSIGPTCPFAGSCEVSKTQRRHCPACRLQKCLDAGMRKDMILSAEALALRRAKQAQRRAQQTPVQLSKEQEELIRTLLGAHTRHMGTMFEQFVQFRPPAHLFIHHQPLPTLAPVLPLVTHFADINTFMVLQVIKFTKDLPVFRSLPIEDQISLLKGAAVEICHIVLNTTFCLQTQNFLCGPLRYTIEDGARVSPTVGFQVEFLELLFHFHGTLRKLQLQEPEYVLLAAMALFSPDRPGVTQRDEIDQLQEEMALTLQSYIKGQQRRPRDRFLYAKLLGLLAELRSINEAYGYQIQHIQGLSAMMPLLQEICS
Experiment: qHTS assay to identify small molecule agonists of the constitutive androstane receptor (CAR) signaling pathway (AID 1224839); note: nearly all actives have a fitted effect of over 15% in size
Conditions: HepG2 hCAR CYP2B6-luciferase, agonist mode, 24 h; series mostly up to 92.4 µM
Inconclusive results are not listed. The source made the active and inactive calls. Calls follow the shape of the dose curve; as a rule, active = well fitted activation curve with a large enough effect in the repeat runs; inconclusive = weak or mixed curves; inactive = no such curve, though single readings can be large or run the other way.
Pick one and only one: active, inactive

# count of solved cases: 4
>>> assigned_class("Cc1c(F)cc2c(=O)c(C(=O)O)cn3c2c1CCC3C (centres undefined)")
"inactive"
>>> assigned_class("CC(C)COC(=O)c1ccccc1O")
"inactive"
>>> assigned_class("N#CCN(CC#N)CCN(CC#N)CC#N")
"inactive"
>>> assigned_class("OC1OC[C@@H](O)[C@H](O)[C@H]1O (some centres undefined)")
"inactive"

Ask | Hey, what did the test say about CCN(CC)S(=O)(=O)c1ccc(C(=O)O)cc1 ?
Reply | inactive

Ask | Lab log entry: CN(C)C(=O)Nc1ccccc1 — outcome as called in the assay?
Reply | inactive

Ask | Per the records of this test, what outcome belongs to CCC(=O)Nc1cccc(N)c1 ?
Reply | inactive

Ask | Test call for this molecule, please: COC(C(=O)O)c1ccccc1 (centres undefined)
Reply | inactive

Ask | Which result was noted for this molecule in the test: CC(C)CCCCCCN
Reply | inactive

Ask | Test call, this molecule: CCCCOCC(C)OCC(C)O (centres undefined)
Reply | inactive

Ask | For CCCC(=O)O[C@]1(C(=O)CCl)[C@@H](C)C[C@H]2[C@@H]3CCC4=CC(=O)C=C[C@]4(C)[C@@]3(F)C(=O)C[C@@]21C , what call appears in the results of this test?
Reply | inactive

Ask | # lookup: test call for CCCCc1ccc(N)cc1
Reply | inactive

Ask | # outcome recorded in this test, key = CCC(C)(C)C1CCC(OC)CC1 (centres undefined)
Reply | inactive

Ask | Hi, sorry to bother you, what did the test record for Cn1ccc2cc3c(cc21)CCN3C(=O)Nc1cccnc1 ?
Reply | active

Ask | What did the test return for CCCCN(CCO)CCO ?
Reply | inactive

Ask | Called result for COC(=O)[C@H]1[C@H]2C[C@@H]3c4[nH]c5cc(OC)ccc5c4CCN3C[C@H]2C[C@@H](OC(=O)COc2ccc(OC)cc2)[C@@H]1OC
Reply | inactive

Ask | Record request — test call for COC(=O)C1=C(C)NC(C)=C(C(=O)OCC(C)=O)C1c1ccccc1[N+](=O)[O-] (centres undefined)
Reply | inactive

Ask | I'd appreciate the recorded outcome for CCCC(C)C(=O)O (centres undefined) from this test.
Reply | inactive

Ask | Called result for O=S(=O)(O)c1ccccc1O
Reply | inactive

Ask | # outcome recorded in this test, key = COc1cc(O)cc(O)c1
Reply | inactive

Ask | What outcome does the record of this test show for CCCCCCCCN(C)CCCCCCCC ?
Reply | inactive

----------
Molecular target: Progesterone receptor (Homo sapiens) (UniProt P06401)
Sequence (P06401 whole entry, looked up): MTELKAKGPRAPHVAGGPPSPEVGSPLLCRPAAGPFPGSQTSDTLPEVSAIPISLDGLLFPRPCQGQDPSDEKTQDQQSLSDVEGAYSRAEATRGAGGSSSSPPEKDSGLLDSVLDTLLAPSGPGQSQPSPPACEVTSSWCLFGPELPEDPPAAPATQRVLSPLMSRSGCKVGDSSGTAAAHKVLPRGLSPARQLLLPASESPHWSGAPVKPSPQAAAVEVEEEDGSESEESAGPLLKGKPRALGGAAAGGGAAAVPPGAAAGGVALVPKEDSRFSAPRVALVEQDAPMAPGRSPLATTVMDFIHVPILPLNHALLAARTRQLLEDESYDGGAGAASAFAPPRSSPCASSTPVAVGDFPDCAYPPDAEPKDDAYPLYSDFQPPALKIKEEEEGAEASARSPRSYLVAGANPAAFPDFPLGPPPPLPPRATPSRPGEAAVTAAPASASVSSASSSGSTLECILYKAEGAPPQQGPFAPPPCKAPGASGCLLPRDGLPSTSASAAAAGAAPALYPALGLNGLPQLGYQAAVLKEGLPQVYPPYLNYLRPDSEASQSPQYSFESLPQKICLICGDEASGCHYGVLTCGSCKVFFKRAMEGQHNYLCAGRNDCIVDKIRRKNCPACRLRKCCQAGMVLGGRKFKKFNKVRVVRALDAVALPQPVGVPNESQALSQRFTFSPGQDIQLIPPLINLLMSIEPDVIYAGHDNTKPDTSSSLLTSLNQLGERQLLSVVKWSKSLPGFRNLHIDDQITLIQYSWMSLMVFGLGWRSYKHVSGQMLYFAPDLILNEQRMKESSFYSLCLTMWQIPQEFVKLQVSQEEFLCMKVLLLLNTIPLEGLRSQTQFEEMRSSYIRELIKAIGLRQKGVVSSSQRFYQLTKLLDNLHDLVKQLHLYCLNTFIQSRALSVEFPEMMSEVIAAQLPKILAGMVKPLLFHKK
Experiment: qHTS assay to identify small molecule antagonists of the progesterone receptor (PR) signaling pathway (AID 1346795); note: % is set by controls: 0 for no effect and ±100 for the full control effect
Settings: PR-UAS-bla HEK293T, beta-lactamase FRET ratio, 16 h; series mostly up to 92.4 µM
Inconclusive results are not listed. The source made the active and inactive calls. Calls follow the shape of the dose curve; as a rule, active = well fitted inhibition curve with a large enough effect in the signal ratio in the repeat runs (not every such curve was filed as active); inconclusive = weak or mixed curves; inactive = flat fitted curve, though single readings scatter; the % refers to the signal ratio.
Write down the outcome that applies. Available outcomes: active, inactive

>>> assigned_class("Cc1ccccc1C(=O)O")
"inactive"
>>> assigned_class("CC(=O)c1ccc(C)cc1")
"inactive"

Ask | Would you mind telling me which call this test gave C=C[Si](OC)(OC)OC ?
Reply | inactive

Ask | Per the records of this test, what outcome belongs to O=c1[nH]c(=O)n([C@H]2O[C@H](CO)[C@@H](O)[C@@H]2O)cc1/C=C\Br ?
Reply | inactive

Ask | Please indicate how the test categorized C1C2OC2C2C1C1CC2C2OC12 (stereo not drawn) .
Reply | inactive

Ask | For this compound, state the assay outcome: CC(C)(O)Cc1ccccc1
Reply | inactive

Ask | // param item: CC(C)(C)OC(=O)N1C[C@@H](F)C[C@H]1C(=O)O ; yields the recorded call
Reply | inactive

Ask | What call does the record list for C[C@H]1O[C@@H](n2cc(F)c(=O)[nH]c2=O)[C@H](O)[C@@H]1O ?
Reply | inactive

Ask | In this assay, the call recorded for Cc1nccn1CC1CCc2c(c3ccccc3n2C)C1=O (stereo not drawn) was what?
Reply | inactive

Ask | I'd appreciate the recorded outcome for COc1cc(O)cc(O)c1 from this test.
Reply | inactive

----------
Assay: A CellTox Green Cytotoxicity Assay to monitor cytotoxicity in HepG2 cells - 8 hour (AID 1224890); note: % is set by controls: 0 for no effect and ±100 for the full control effect; nearly all actives have a fitted effect of over 45% in size
Conditions: CellTox Green fluorescence; series mostly up to 76.8 µM
Inconclusive results are not listed. Active and inactive are the calls of the source. Calls come from the whole dose curve; as a rule, active = well fitted activation curve with a large enough effect in the repeat runs; inconclusive = weak or mixed curves; inactive = flat fitted curve, though single readings scatter.
ENDPOINT: cytotoxicity increase

>>> reported_value("COC(=O)C1=C(C)NC(C)=C(C(=O)OCC(C)=O)C1c1ccccc1[N+](=O)[O-] (stereo not given)")
"inactive"
>>> reported_value("CCCCCN(CCCCC)C(=O)C(CCC(=O)O)NC(=O)c1ccc(Cl)c(Cl)c1 (stereo not given)")
"inactive"
>>> reported_value("Cn1ccc2cc3c(cc21)CCN3C(=O)Nc1cccnc1")
"-6.36% [at 15.8 µM] (inactive)"
>>> reported_value("CCCCCCOC(=O)CC(CC(=O)OCCCCCC)(OC(=O)CCC)C(=O)OCCCCCC")
"inactive"

Shift focus to the following entry.
Lookup result for O=C(O)c1ccccc1S ; measured cytotoxicity increase: inactive

----------
Experiment: qHTS assay to test for compound auto fluorescence at 590 nm (red) in HEK293 cells (AID 720679); note: % is set by controls: 0 for no effect and ±100 for the full control effect
Conditions: red autofluorescence 540/590 nm; series mostly up to 91.3 µM
Active and inactive are the calls of the source. Calls follow the shape of the dose curve; as a rule, active = well fitted curve in the direction sought with a large enough effect in the repeat runs; inconclusive = weak or mixed curves; inactive = flat fitted curve, though single readings scatter.
ENDPOINT: fluorescence, % of fluorescent control

>>> reported_value("CCN1CCN(c2cc3c(cc2F)c(=O)c(C(=O)O)cn3C2CC2)CC1")
"inactive"
>>> reported_value("O=C1C(CCS(=O)c2ccccc2)C(=O)N(c2ccccc2)N1c1ccccc1 (stereo not drawn)")
"0.179% [at 18.6 µM] (inactive)"
>>> reported_value("Nc1[nH]c(=O)ncc1F")
"0.0902% [at 18.6 µM] (inactive)"
>>> reported_value("Cc1ncc(CSSCc2cnc(C)c(O)c2CO)c(CO)c1O")
"inactive"
>>> reported_value("CCCOc1ccccc1-c1nc2n[nH]nc2c(=O)[nH]1")
"inactive"

So for CCCOCC(C)OCC(C)O (stereo not drawn) , the logged fluorescence, % of fluorescent control turned out to be inactive

The reported value for O=[N+]([O-])c1ccc(CCO)cc1 in terms of fluorescence, % of fluorescent control is inactive

Form field fluorescence, % of fluorescent control, entry CC/C=C\C#N : inactive

----------
Test: qHTS assay for small molecule agonists of the antioxidant response element (ARE) signaling pathway (AID 743202); for activation: % is set by controls: 0 for no effect and ±100 for the full control effect
Conditions: HepG2 ARE-bla reporter, beta-lactamase FRET, 16 h; series mostly up to 73.3 µM
Records with an inconclusive call do not appear. Active and inactive are the calls of the source. The call rests on the fitted dose curve; in most records, active means well fitted activation curve with a large enough effect in the signal ratio in the repeat runs (not every such curve was filed as active); inconclusive means weak or mixed curves, or effect the other way; inactive means no such curve, though single readings can be large or run the other way; the % refers to the signal ratio.
Select the matching outcome among label 1 = active, label 0 = inactive

Ask | Write down the call the test reported for this compound. Item: CCCCN(CCO)CCO
Reply | label 0

Ask | Please state the recorded outcome for this compound: CCOC(=O)Nc1ccc2c(c1)N(C(=O)CCN1CCOCC1)c1ccccc1S2
Reply | label 1

Ask | Given CO[Si](OC)(OC)OC , state the outcome it received in this test.
Reply | label 0

Ask | Could you check what this test reported for CCCOc1ccccc1-c1nc2n[nH]nc2c(=O)[nH]1 ?
Reply | label 0

----------
Biological target: Cytochrome P450 3A4 (Homo sapiens)
Test: Cytochrome P450 Family 3 Subfamily A Member 4 (CYP3A4) small molecule antagonists: luciferase reporter qHTS assay (AID 1671201); note: nearly all actives have a fitted effect of over 50% in size
Details: P450-Glo CYP3A4 enzyme, luciferin luminescence, 1 h; series mostly up to 115 µM
Results filed as inconclusive are left out. Calls of active or inactive are those of the source. Calls follow the shape of the dose curve; as a rule, active = well fitted inhibition curve with a large enough effect in the repeat runs; inconclusive = weak or mixed curves; inactive = no such curve, though single readings can be large or run the other way.
Allowed answers: active, inactive

Known results for compounds:
>>> assigned_class("CCO[Si](CCCN=C=O)(OCC)OCC")
"active"
>>> assigned_class("CC(CCO)CCCC(C)(C)O (centres undefined)")
"inactive"
>>> assigned_class("O=[N+]([O-])c1ccc(Oc2ccc([N+](=O)[O-])cc2)cc1")
"inactive"
>>> assigned_class("OCc1ccccn1")
"inactive"
>>> assigned_class("CN(C)CCn1nnnc1SCC1=C(C(=O)O)N2C(=O)[C@@H](NC(=O)Cc3csc(N)n3)[C@H]2SC1")
"inactive"
>>> assigned_class("C/C=C1\\C(=O)C[C@H]2[C@@H]3CCC4=CC(=O)CC[C@]4(C)[C@H]3CC[C@]12C")
"inactive"

Ask | Identify the outcome logged in this assay for the compound shown: Nc1nc2c(ncn2CCC(CO)CO)c(=O)[nH]1
Reply | inactive

Ask | Give the logged outcome of this assay for the following compound: CC(C)(C)C(=O)/C=C/c1ccc(Cl)cc1
Reply | inactive

Ask | Any idea what this test logged for CC(=O)CCc1ccc(O)cc1 ?
Reply | inactive
